Test system: Echinochloa crus-galli (ECHCG)
METHOD_DESCRIPTION: Pre-emergence herbicide glasshouse test
Assay type: in vivo
CONDITION_LABEL: 250 g/ha, evaluated after 13 days, five-point scale
QUANTITY_MEASURED: percentage damage caused to the plant, ECHCG

Take a look at these entries with their results.
1. O=CCCc1nc(C(F)(F)F)nc2cccc(Oc3ncc(Cl)cn3)c12 [Compound 1.038]	1 (1=0-20%)
2. FC(F)(F)c1nc(CCCC2CC2)c2c(Oc3ncc(Cl)cn3)cccc2n1 [Compound 1.019]	4 (4=61-80%)
3. FC(F)(F)c1nc(CCC2COC2)c2c(Oc3ncc(Cl)cn3)cccc2n1 [Compound 1.033]	5 (5=81-100%)
4. CO/N=C\CCc1nc(C(F)(F)F)nc2cccc(Oc3ncc(Cl)cn3)c12 [Compound 1.022]	5 (5=81-100%)

Suppose we examine the molecule C=CCCc1nc(C(F)(F)F)nc2cccc(Oc3ncc(Cl)cn3)c12 [Compound 1.043] ; what percentage damage caused to the plant, ECHCG value has been reported?
5 (5=81-100%)

And for CCNC(=O)CCc1nc(C(F)(F)F)nc2cccc(Oc3ncc(Cl)cn3)c12 [Compound 1.012] ?
1 (1=0-20%)

---

Listing: percentage damage caused to the plant, SETFA of selected compounds
Tested on: Setaria faberi (SETFA)
METHOD_DESCRIPTION: Post-emergence herbicide glasshouse test
Format: in vivo
CONDITION_LABEL: 250 g/ha, evaluated after 13 days, five-point scale

Known percentage damage caused to the plant, SETFA results, listed for orientation:
1. OCCCc1nc(C(F)(F)F)nc2cccc(Oc3ncc(Cl)cn3)c12 [Compound 1.039]	1 (1=0-20%)
2. O=C(c1ccc(F)cn1)c1nc(C(F)(F)F)nc2cccc(Oc3ncc(Cl)cn3)c12 [Compound 1.027]	1 (1=0-20%)
3. CO/N=C/CCc1nc(C(F)(F)F)nc2cccc(Oc3ncc(Cl)cn3)c12 [Compound 1.025]	5 (5=81-100%)
4. CC(=O)N1CCC(CCc2nc(C(F)(F)F)nc3cccc(Oc4ncc(Cl)cn4)c23)CC1 [Compound 1.034]	5 (5=81-100%)
5. C=CCON=CCCc1nc(C(F)(F)F)nc2cccc(Oc3ncc(Cl)cn3)c12 [Compound 1.067]	5 (5=81-100%)
6. O=C(c1ccc(Cl)cn1)c1nc(C(F)(F)F)nc2cccc(Oc3ncc(Cl)cn3)c12 [Compound 1.070]	1 (1=0-20%)
7. CON1CCC(CCc2nc(C(F)(F)F)nc3cccc(Oc4ncc(Cl)cn4)c23)CC1 [Compound 1.023]	1 (1=0-20%)
8. CON=CCc1nc(C(F)(F)F)nc2cccc(Oc3ncc(Cl)cn3)c12 [Compound 1.007]	1 (1=0-20%)

Looking for the measured percentage damage caused to the plant, SETFA of O=CCCc1nc(C(F)(F)F)nc2cccc(Oc3ncc(Cl)cn3)c12 [Compound 1.038] , can you help?
1 (1=0-20%)

Also COCCCc1nc(C(F)(F)F)nc2cccc(Oc3ncc(Cl)cn3)c12 [Compound 1.024] , if possible.
4 (4=61-80%)

Then O=C(c1ccc(Br)cn1)c1nc(C(F)(F)F)nc2cccc(Oc3ncc(Cl)cn3)c12 [Compound 1.026] ?
1 (1=0-20%)
